# Assay procedure: recombinant UMI read abundance after kanamycin selection (control-corrected) (log10(CPM+1)); higher = more efficient recombination; extreme values may be limits of the assay; sequences stand for … in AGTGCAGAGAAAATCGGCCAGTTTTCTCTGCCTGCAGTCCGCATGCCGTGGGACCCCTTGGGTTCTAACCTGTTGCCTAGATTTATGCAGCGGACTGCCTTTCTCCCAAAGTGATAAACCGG…AGGTTGGTTTCACT; site = the 11-nt donor;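 further: IS621 bridge recombinase in Escherichia coli cells against a fixed T5 target plasmid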
// reported recombinant UMI read abundance (log10) for each item listed

{"Record sequence": "CTGGTAGCATGGACCGGTTTTCCCGGTAATCCGTATTTGAC (site CTGGTAGCTGT)", "recombinant UMI read abundance (log10)": 2.85}
{"Record sequence": "ACAAGAACATGGACCGGTTTTCCCGGTAATCCGTATTTGAG (site ACCAGAACTCT)", "recombinant UMI read abundance (log10)": 0.645}
{"Record sequence": "CGTGAGACATGGACCGGTTTTCCCGGTAATCCGTATTTGAG (site CGTAAGACTCT)", "recombinant UMI read abundance (log10)": 2.08}
{"Record sequence": "GCGAGCGCATGGACCGGTTTTCCCGGTAATCCGTATTTGTC (site GCGAGCGCTGA)", "recombinant UMI read abundance (log10)": 2.69}
{"Record sequence": "AGCTATACATGGACCGGTTTTCCCGGTAATCCGTATTTGAC (site ACCTATACTGT)", "recombinant UMI read abundance (log10)": 0.726}
{"Record sequence": "GTTAGAACATGGACCGGTTTTCCCGGTAATCCGTATTTGGT (site GTTAGAACTAC)", "recombinant UMI read abundance (log10)": 0.908}
{"Record sequence": "CAAATCCCATGGACCGGTTTTCCCGGTAATCCGTATTTGCT (site CAATTCCCTAG)", "recombinant UMI read abundance (log10)": 0}
{"Record sequence": "CAAGTCACATGGACCGGTTTTCCCGGTAATCCGTATTTGGA (site CAAGTCACTTC)", "recombinant UMI read abundance (log10)": 2.03}
{"Record sequence": "TTTGCGCCATGGACCGGTTTTCCCGGTAATCCGTATTTGCT (site TTTGCGGCTAG)", "recombinant UMI read abundance (log10)": 0}
